Below, each entry is listed with its recorded Activity.
tested on: HEK293; assay: Toxicity against HEK293 cells assessed as reduction in cell viability at 10 uM incubated for 24 hrs by cell titre blue viability assay relative to control; type: cell-based; settings: human, hek293, 24 h

Some solved cases for reference:
Ask: For the compound O=C(Nc1cccc(Cl)c1C(=O)NCCN1CCOCC1)c1ccccc1F , give its measured Activity value.
Reply: > 70%

Ask: Look up Activity of Cc1cccc(C(=O)NCCN2CCOCC2)c1NC(=O)c1ccccc1F and report it.
Reply: > 70%

Ask: Annotate the compound COc1cccc(C(=O)NCCN2CCOCC2)c1NC(=O)c1ccccc1F with its measured Activity.
Reply: > 70%

Continuing:
Ask: Assign Activity to the following record: O=C(NCCN1CCOCC1)c1ccccc1NC(=O)c1c(F)cccc1F
Reply: > 90%

Ask: Please report the measured Activity for O=C(NCCN1CCOCC1)c1ccccc1NC(=O)c1ccccc1[N+](=O)[O-]
Reply: > 70%

Ask: Give recorded Activity. O=C(Nc1ccccc1C(=O)NCN1CCCC1)c1ccccc1F
Reply: > 70%

----------
system: MDA-MB-231; test: Toxicity against human MDA-MB-231 cells assessed as reduction in cell viability at 10 uM incubated for 24 hrs by cell titre blue viability assay relative to control; type: cell-based; details: mda-mb-231, 24 h
observation_type: Activity

Solved cases (5 shown):
Ask: Give the value of Activity reported for the following: O=C(Nc1ccccc1C(=O)NCCN1CCOCC1)c1cc(F)cc(F)c1
Reply: > 90%

Ask: Tell me Activity reported for O=C(Nc1ccccc1C(=O)NCCc1ccccn1)c1ccccc1F
Reply: > 70%

Ask: Write down Activity measured for item COc1cc(OC)cc(C(=O)Nc2ccccc2C(=O)NCCN2CCOCC2)c1
Reply: > 90%

Ask: Return reported Activity. Input compound: Cc1ccccc1C(=O)Nc1ccccc1C(=O)NCCN1CCOCC1
Reply: > 70%

Ask: Read off the recorded Activity for COc1ccc(C(=O)Nc2ccccc2C(=O)NCCN2CCOCC2)cc1OC
Reply: > 90%

Continue with the next compound.
Ask: Indicate its recorded Activity; the compound in question is COc1cc(C(=O)Nc2ccccc2C(=O)NCCN2CCOCC2)cc(OC)c1OC
Reply: > 90%

----------
test system: HEK293; assay: Toxicity against HEK293 cells assessed as reduction in cell viability at 10 uM incubated for 24 hrs by cell titre blue viability assay relative to control; type: cell-based; conditions: human, hek293, 24 h
observation_type: Activity

Below, each entry is followed by its recorded Activity result.
Ask: Print HEK293 Activity for O=C(Nc1ccccc1C(=O)NCCN1CCOCC1)c1ccc([N+](=O)[O-])cc1 .
Reply: > 70%

Ask: Specify Activity for COc1cc(OC)cc(C(=O)Nc2ccccc2C(=O)NCCN2CCOCC2)c1 , system HEK293.
Reply: > 90%

Ask: State recorded Activity with HEK293, entry COc1ccc(C(=O)Nc2ccccc2C(=O)NCCN2CCOCC2)cc1 , no comment.
Reply: > 70%

Please look at the following compound next.
Ask: Find the measured Activity of Cc1ccccc1C(=O)Nc1ccccc1C(=O)NCCN1CCOCC1 with HEK293 as test system.
Reply: > 70%

----------
test system: MDA-MB-231; assay: Toxicity against human MDA-MB-231 cells assessed as reduction in cell viability at 10 uM incubated for 24 hrs by cell titre blue viability assay relative to control; format: cell-based; conditions: mda-mb-231, 24 h
observation_type: Activity

Ask: Indicate the recorded Activity value for this compound: O=C(Nc1ccccc1C(=O)NCCN1CCOCC1)c1ccc(F)cc1F
Reply: > 90%

----------
system: HEK293; assay: Toxicity against HEK293 cells assessed as reduction in cell viability at 10 uM incubated for 24 hrs by cell titre blue viability assay relative to control; assay type: cell-based; settings: human, hek293, 24 h
observation_type: Activity

Consider the worked cases shown below.
Ask: Check the records and state Activity for COc1ccc(C(=O)Nc2ccccc2C(=O)NCCN2CCOCC2)cc1OC
Reply: > 90%

Ask: For the molecule O=C(Nc1ccccc1C(=O)NCCCN1CCOCC1)c1ccccc1F , give its measured Activity value.
Reply: > 70%

Ask: Output Activity of COc1cc(C(=O)Nc2ccccc2C(=O)NCCN2CCOCC2)cc(OC)c1OC
Reply: > 90%

More entries:
Ask: Give the value of Activity reported for the following: O=C(Nc1ccccc1C(=O)NCCc1ccccn1)c1ccccc1F
Reply: > 70%

Ask: Retrieve Activity measured for COc1cccc(C(=O)Nc2ccccc2C(=O)NCCN2CCOCC2)c1 and print it.
Reply: > 70%

Ask: Respond only with Activity recorded for O=C(Nc1ccccc1C(=O)NCCN1CCOCC1)c1ccccc1F
Reply: > 70%

----------
Entries and their Activity
test system: HEK293; assay: Toxicity against HEK293 cells assessed as reduction in cell viability at 10 uM incubated for 24 hrs by cell titre blue viability assay relative to control; type: cell-based; conditions: human, hek293, 24 h

These recorded examples may help you get a feel for the data.
Ask: Supply recorded Activity for O=C(Nc1ccccc1C(=O)NCCN1CCOCC1)c1ccc(F)cc1 here.
Reply: > 70%

Ask: Kindly indicate its recorded Activity. Item: NCCNC(=O)c1ccccc1NC(=O)c1ccccc1F
Reply: > 70%

New cases:
Ask: // Input: O=C(Nc1ccccc1C(=O)NCCN1CCOCC1)c1ccc(F)cc1F . Output its Activity only.
Reply: > 90%

Ask: Kindly indicate its recorded Activity. Item: O=C(Nc1ccccc1C(=O)NCCN1CCCCC1)c1ccccc1F
Reply: > 70%

Ask: Give Activity for O=C(Nc1ccccc1C(=O)NCCN1CCOCC1)c1cc(F)cc(F)c1
Reply: > 90%

----------
system: MDA-MB-231; assay: Toxicity against human MDA-MB-231 cells assessed as reduction in cell viability at 10 uM incubated for 24 hrs by cell titre blue viability assay relative to control; type: cell-based; details: mda-mb-231, 24 h
observation_type: Activity

Consider the worked cases shown below.
Ask: Supply recorded Activity for COc1cccc(C(=O)NCCN2CCOCC2)c1NC(=O)c1ccccc1F here.
Reply: > 70%

Ask: Give the reported value of Activity for this record: O=C(NCCN1CCOCC1)c1ccccc1NC(=O)c1ccccc1[N+](=O)[O-]
Reply: > 70%

---
Ask: Return Activity for the following compound: NCCNC(=O)c1ccccc1NC(=O)c1ccccc1F
Reply: > 70%

Taken from ChEMBL document CHEMBL4421724.
